# tested.on: ER (Homo sapiens (Human), UniProt P03372)
# Sequence (P03372 whole entry): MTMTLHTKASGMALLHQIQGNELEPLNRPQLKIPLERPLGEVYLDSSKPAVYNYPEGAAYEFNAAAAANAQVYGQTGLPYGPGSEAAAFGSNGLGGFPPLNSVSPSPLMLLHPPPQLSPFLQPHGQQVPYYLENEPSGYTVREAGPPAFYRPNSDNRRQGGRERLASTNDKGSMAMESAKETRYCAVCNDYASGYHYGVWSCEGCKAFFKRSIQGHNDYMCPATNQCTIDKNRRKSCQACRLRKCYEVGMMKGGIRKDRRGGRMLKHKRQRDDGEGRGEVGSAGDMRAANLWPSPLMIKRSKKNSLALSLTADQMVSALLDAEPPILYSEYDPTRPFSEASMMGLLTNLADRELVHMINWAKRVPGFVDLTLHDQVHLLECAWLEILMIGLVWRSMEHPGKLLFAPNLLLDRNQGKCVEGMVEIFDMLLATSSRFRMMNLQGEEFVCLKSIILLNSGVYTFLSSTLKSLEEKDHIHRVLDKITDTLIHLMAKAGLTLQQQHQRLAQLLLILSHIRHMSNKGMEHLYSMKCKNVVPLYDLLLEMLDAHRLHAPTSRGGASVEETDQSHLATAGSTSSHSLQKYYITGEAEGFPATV
# run.description: In-cell western (ICW) ER degradation assay in T47D cells
# Type: cell-based
# condition.set: maximal ER degradation, 16 hrs
measured.metric: Dmax

// map O=C1CCC(NC(=O)c2ccc(N3CCN(CC4CC5(CCN(c6ccc([C@@H]7c8ccc(O)cc8OC[C@@H]7c7ccccc7)cc6)CC5)C4)CC3)cn2)C(=O)N1 (some centres unmarked) to recorded Dmax (system: ER (Homo sapiens (Human), UniProt P03372)) 50 to 75%

Short answer please: Dmax, ER (Homo sapiens (Human), UniProt P03372), entry O=C1CC[C@@H](N2Cc3c(ccc4c3OC[C@@H]3CN(C[C@H]5COC6(CCN(c7ccc([C@H]8c9ccc(O)cc9OC[C@H]8c8ccccc8)cc7)CC6)C5)CCN43)C2=O)C(=O)N1 25 to 50%

Look up Dmax with ER (Homo sapiens (Human), UniProt P03372) for this compound: COc1cc(C(=O)NC2CCC(=O)NC2=O)ncc1N1CCN(CC2CC3(CCN(c4ccc([C@H]5c6ccc(O)cc6OC[C@H]5c5ccccc5)cc4)CC3)C2)CC1 (single isomer, unassigned) 50 to 75%

Return Dmax measured with ER (Homo sapiens (Human), UniProt P03372) given this compound: CC(C(=O)N1Cc2cc3c(cc2C1)C(=O)N(C1CCC(=O)NC1=O)C3=O)N1CCC2(CCN(c3ccc([C@H]4c5ccc(O)cc5OC[C@H]4c4ccccc4)cc3)CC2)CC1 (single isomer, unassigned) < 25%

Checklist item: Dmax tested on ER (Homo sapiens (Human), UniProt P03372), entry O=C1CCC(N2C(=O)c3cc4c(cc3C2=O)CN(CC(=O)N2CCC3(CC2)CN(c2ccc([C@@H]5c6ccc(O)cc6OC[C@@H]5c5ccccc5)cc2)C3)C4)C(=O)N1 (single isomer, unassigned) , value? 50 to 75%

----------
# tested.on: CRBN/DDB1 (Homo sapiens (Human), UniProt Q96SW2)
# Sequence (Q96SW2 whole entry): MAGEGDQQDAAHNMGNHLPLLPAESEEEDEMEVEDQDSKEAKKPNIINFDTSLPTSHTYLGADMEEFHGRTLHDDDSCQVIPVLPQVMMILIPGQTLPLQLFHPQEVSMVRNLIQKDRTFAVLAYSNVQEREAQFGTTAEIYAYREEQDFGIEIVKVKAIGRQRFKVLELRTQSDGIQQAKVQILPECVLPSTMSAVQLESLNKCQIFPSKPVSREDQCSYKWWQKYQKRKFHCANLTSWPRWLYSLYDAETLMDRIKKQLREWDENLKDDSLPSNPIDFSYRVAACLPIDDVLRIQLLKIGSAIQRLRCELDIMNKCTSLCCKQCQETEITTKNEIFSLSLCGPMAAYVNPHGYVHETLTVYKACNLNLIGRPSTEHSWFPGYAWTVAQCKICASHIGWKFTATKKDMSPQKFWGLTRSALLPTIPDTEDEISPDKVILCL
# Sequence (Q16531 whole entry partner): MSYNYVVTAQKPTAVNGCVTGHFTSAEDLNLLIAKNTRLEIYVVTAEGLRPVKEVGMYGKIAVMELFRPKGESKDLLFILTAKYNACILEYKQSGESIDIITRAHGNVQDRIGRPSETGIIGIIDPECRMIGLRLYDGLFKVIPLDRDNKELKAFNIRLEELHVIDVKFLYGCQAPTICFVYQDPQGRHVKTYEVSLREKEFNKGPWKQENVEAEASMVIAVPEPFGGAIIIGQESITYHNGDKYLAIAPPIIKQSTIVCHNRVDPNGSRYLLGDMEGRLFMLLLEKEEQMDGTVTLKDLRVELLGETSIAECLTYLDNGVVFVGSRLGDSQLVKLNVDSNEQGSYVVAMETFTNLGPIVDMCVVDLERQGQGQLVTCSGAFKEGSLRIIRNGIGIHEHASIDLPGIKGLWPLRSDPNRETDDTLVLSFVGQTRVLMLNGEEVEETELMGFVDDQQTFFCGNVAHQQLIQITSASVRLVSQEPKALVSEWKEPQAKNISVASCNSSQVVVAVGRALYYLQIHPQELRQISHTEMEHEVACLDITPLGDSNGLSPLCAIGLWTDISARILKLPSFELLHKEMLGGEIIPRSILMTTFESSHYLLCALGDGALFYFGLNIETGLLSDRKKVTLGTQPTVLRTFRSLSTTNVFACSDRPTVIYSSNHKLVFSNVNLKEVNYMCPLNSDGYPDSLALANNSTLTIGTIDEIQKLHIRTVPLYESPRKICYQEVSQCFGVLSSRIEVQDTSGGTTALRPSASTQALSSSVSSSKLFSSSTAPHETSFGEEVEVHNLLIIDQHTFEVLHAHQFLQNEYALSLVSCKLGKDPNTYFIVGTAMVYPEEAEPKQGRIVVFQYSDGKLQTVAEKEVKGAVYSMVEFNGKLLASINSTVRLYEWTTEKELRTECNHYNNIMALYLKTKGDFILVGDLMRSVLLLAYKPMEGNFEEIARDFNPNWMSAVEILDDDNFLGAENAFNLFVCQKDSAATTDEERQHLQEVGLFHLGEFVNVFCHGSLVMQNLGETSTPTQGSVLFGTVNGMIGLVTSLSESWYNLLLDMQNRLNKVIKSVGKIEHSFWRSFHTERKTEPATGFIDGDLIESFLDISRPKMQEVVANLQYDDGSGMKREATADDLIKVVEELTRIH
# run.description: HTRF binding assay to CRBN/DDB1
# condition.set: read-out: CRBN HTRF IC50
measured.metric: IC50

Query for CRBN/DDB1 (Homo sapiens (Human), UniProt Q96SW2): what IC50 does the record show for O=C1CCC(N2Cc3cc4c(cc3C2=O)OC[C@@H]2CN(CC3CCC5(CC3)CN(c3ccc([C@@H]6c7ccc(O)cc7OC[C@@H]6c6ccccc6)cc3)C5)CCN42)C(=O)N1 (some centres unmarked) [Compound A53] ? 500 to 5000 nM

Return IC50 measured with CRBN/DDB1 (Homo sapiens (Human), UniProt Q96SW2) given this compound: O=C1CCC(Nc2ccc(N3CCN(CC4CC5(CCN(c6ccc([C@H]7c8ccc(O)cc8OC[C@H]7c7ccccc7)cc6)CC5)C4)CC3)c(F)c2)C(=O)N1 (single isomer, unassigned) [Compound A51] 500 to 5000 nM

Find IC50 (CRBN/DDB1 (Homo sapiens (Human), UniProt Q96SW2)) for the entry O=C1CCC(N2Cc3cc4c(cc3C2=O)OC[C@@H]2CN(CC3CCN(c5ncc([C@@H]6c7ccc(O)cc7OC[C@@H]6c6ccccc6)cn5)CC3)CCN42)C(=O)N1 (some centres unmarked) [Compound A10] 500 to 5000 nM

# get_value(readout= IC50, system= CRBN/DDB1 (Homo sapiens (Human), UniProt Q96SW2)) for O=C1CCC(N2Cc3c(ccc4c3OC[C@H]3CN(CC5CCN(c6ccc([C@@H]7c8ccc(O)cc8OC[C@@H]7c7ccccc7)cc6F)CC5)CCN43)C2=O)C(=O)N1 (single isomer, unassigned) [Compound A9] 50 to 500 nM

Reported IC50 for CRBN/DDB1 (Homo sapiens (Human), UniProt Q96SW2), given O=C1CCC(Nc2ccc(N3CCN(CC4CCN(c5ccc([C@@H]6c7ccc(O)cc7OC[C@@H]6c6ccccc6)cc5)CC4)CC3)c(F)c2)C(=O)N1 (some centres unmarked) [Compound A30] ? 500 to 5000 nM

----------
# tested.on: UniProt P03372
# run.description: In-cell western (ICW) ER degradation assay in T47D cells
# Format: cell-based
# condition.set: maximal ER degradation, 16 hrs
Where a name gives a salt, the structure may show the parent alone.
measured.metric: Dmax

Endpoint output: Dmax of O=C1CCC(Nc2ccc(C3CCN(CC4CCN(c5ccc([C@@H]6c7ccc(O)cc7OC[C@@H]6c6ccccc6)cc5)CC4)CC3)c(F)c2)C(=O)N1 (single isomer, unassigned) . Value? 25 to 50%

# query: Dmax of entry COc1cc(N2CCC(CN3CCN4c5cc6c(cc5OC[C@H]4C3)C(=O)N(C3CCC(=O)NC3=O)C6)CC2)ccc1[C@@H]1c2ccc(O)cc2OC[C@@H]1c1ccccc1 (single isomer, unassigned) 50 to 75%

If you can, please state the reported Dmax value of O=C1CCC(Nc2ccc(N3CCN(CC4CC5(CCN(c6ccc([C@@H]7c8ccc(O)cc8OC[C@@H]7c7ccccc7)cc6)CC5)C4)CC3)c(F)c2)C(=O)N1 (stereo partly drawn) . 25 to 50%

Endpoint output: Dmax of O=C1CCC(Nc2ccc(C3CCN(CC4CC5(CCN(c6ccc([C@@H]7c8ccc(O)cc8OC[C@@H]7c7ccccc7)cc6)CC5)C4)CC3)c(F)c2)C(=O)N1 (single isomer, unassigned) . Value? 50 to 75%

Which value of Dmax has been reported for O=C1CCN(c2ccc(N3CCC(CN4CC5(CCN(c6ccc([C@@H]7c8ccc(O)cc8OC[C@@H]7c7ccccc7)cc6)CC5)C4)CC3)cc2)C(=O)N1 (single isomer, unassigned) in the records? 25 to 50%

Given COc1cc(N2CCC(CN3CCN4c5cc6c(cc5OC[C@H]4C3)C(=O)N([C@@H]3CCC(=O)NC3=O)C6)CC2)ccc1[C@H]1c2ccc(O)cc2OC[C@H]1c1ccccc1 (single isomer, unassigned) , state its recorded Dmax. ≥ 75%

Please look up its Dmax: O=C1CCC(N2C(=O)c3cc4c(cc3C2=O)CN(C(=O)CN2CCC3(CC2)CCN(c2ccc([C@H]5c6ccc(O)cc6OC[C@H]5c5ccccc5)cc2)CC3)C4)C(=O)N1 (single isomer, unassigned) [Compound A54, formate] ≥ 75%

Suppose we examine the compound O=C1CC[C@@H](Nc2ccc(C3CCN(C[C@H]4COC5(CCN(c6ccc([C@H]7c8ccc(O)cc8OC[C@H]7c7ccccc7)cc6)CC5)C4)CC3)c(F)c2)C(=O)N1 (single isomer, unassigned) ; what Dmax value has been reported? 50 to 75%

Can you share its Dmax? I mean this compound: O=C1CCC(NC(=O)c2ccc(N3CCN(CC4CCN(c5ccc([C@@H]6c7ccc(O)cc7OC[C@@H]6c6ccccc6)cc5)CC4)CC3)cn2)C(=O)N1 (single isomer, unassigned) 50 to 75%

----------
# tested.on: ER (Homo sapiens (Human))
# run.description: In-cell western (ICW) ER degradation assay in MCF-7 cells
# Type: cell-based
# condition.set: ER degradation, MCF7, 16 hrs
# Experimental: ERa degradative activity of compounds can be assessed in MCF-7 and T47D Cells. MCF-7 and T47D cell are seeded and are subsequently treated with the compounds at certain concentrations (e.g., 0.02 to 300 nM). DMSO can be used as vehicle control. Cells are fixed and are blocked with Intercept (PBS) Blocking Buffer (e.g., Li-COR, Odyssey Blocking Buffer), and are stained with ER (e.g., 1:500, Cell signaling) primary antibody for overnight at cold room. […]
measured.metric: DC50

// returns reported DC50 for input O=C1CCC(N2Cc3c(ccc4c3OC[C@H]3CN(CC5CCN(c6ccc([C@@H]7c8ccc(O)cc8OC[C@@H]7c7ccccc7)cc6)CC5)CCN43)C2=O)C(=O)N1 (single isomer, unassigned) [Compound A8] 1 to 10 nM

Recorded DC50 of O=C1CCC(N2Cc3cc(N4CCN(CC5CC6(CCN(c7ccc([C@@H]8c9ccc(O)cc9OC[C@@H]8c8ccccc8)cn7)CC6)C5)CC4)ccc3C2=O)C(=O)N1 (single isomer, unassigned) [Compound A67] , please. > 100 nM

// query DC50 value for entry COc1cc(N2CCC(CN3CCN4c5ccc6c(c5OC[C@H]4C3)CN(C3CCC(=O)NC3=O)C6=O)CC2)ccc1[C@@H]1c2ccc(O)cc2OC[C@@H]1c1ccccc1 (single isomer, unassigned) [Compound A77] < 1 nM

Which DC50 is listed for O=C1CC[C@@H](NC(=O)c2ccc(N3CCN(CC4COC5(CCN(c6ccc([C@H]7c8ccc(O)cc8OC[C@H]7c7ccccc7)cc6)CC5)C4)CC3)cn2)C(=O)N1 (single isomer, unassigned) [Compound A145] ? 1 to 10 nM

----------
# tested.on: CRBN/DDB1 (Homo sapiens (Human))
# run.description: HTRF binding assay to CRBN/DDB1
# condition.set: read-out: CRBN HTRF IC50
Please go through the items and note down their IC50.

Param readout = IC50; param system = CRBN/DDB1 (Homo sapiens (Human)); param query = O=C1CCC(NC(=O)c2ccc(N3CCN(CC4CCN(c5ccc([C@H]6c7ccc(O)cc7OC[C@H]6c6ccccc6)cc5F)CC4)CC3)cn2)C(=O)N1 (single isomer, unassigned) ; response: value > 5000 nM

Request body: readout IC50, system CRBN/DDB1 (Homo sapiens (Human)), query O=C1CCC(NC(=O)c2ccc(N3CCC(CN4CCN(c5ccc([C@H]6c7ccc(O)cc7OC[C@H]6c6ccccc6)cc5)CC4)CC3)cn2)C(=O)N1 (single isomer, unassigned) [Compound A128] . Return the value. > 5000 nM

Please tell me: IC50 of O=C1CCC(N2Cc3c(ccc4c3OCC43CCN(CC4COC5(CCN(c6ccc([C@H]7c8ccc(O)cc8OC[C@H]7c7ccccc7)cc6)CC5)C4)CC3)C2=O)C(=O)N1 (stereo partly shown) , system CRBN/DDB1 (Homo sapiens (Human))? < 50 nM

Write down the reported IC50 of O=C1CC[C@@H](Nc2ccc(C3CCN(CC4CCC5(CC4)CN(c4ccc([C@@H]6c7ccc(O)cc7OC[C@@H]6c6ccccc6)cc4)C5)CC3)cc2)C(=O)N1 (single isomer, unassigned) , test system: CRBN/DDB1 (Homo sapiens (Human)). 50 to 500 nM

Please tell me: IC50 of COc1cc(N2CCC(CN3CCN4c5cc6c(cc5OC[C@H]4C3)C(=O)N(C3CCC(=O)NC3=O)C6)CC2)ccc1[C@@H]1c2ccc(O)cc2OC[C@@H]1c1ccccc1 (single isomer, unassigned) , system CRBN/DDB1 (Homo sapiens (Human))? 500 to 5000 nM

Request - read-out IC50 | tested on CRBN/DDB1 (Homo sapiens (Human)) | compound O=C1CCC(N2Cc3cc4c(cc3C2=O)OC[C@@H]2CN(CC3CCN(c5ccc([C@H]6c7ccc(O)cc7OC[C@H]6c6ccccc6)cn5)CC3)CCN42)C(=O)N1 (single isomer, unassigned) 50 to 500 nM

Notebook entry, CRBN/DDB1 (Homo sapiens (Human)) assay: IC50 of O=C1CCC(N2Cc3cc4c(cc3C2=O)OC[C@@H]2CN(CC3CCN(c5ccc([C@@H]6c7ccc(O)cc7OC[C@@H]6c6ccccc6)cn5)CC3)CCN42)C(=O)N1 (single isomer, unassigned) = ? 50 to 500 nM

Item: COc1cc(N2CCC(CN3CCN(c4cnc(C(=O)NC5CCC(=O)NC5=O)cc4OC)CC3)CC2)ccc1[C@H]1c2ccc(O)cc2OC[C@H]1c1ccccc1 (single isomer, unassigned) Test system: CRBN/DDB1 (Homo sapiens (Human)) Read-out: IC50 Value: ? > 5000 nM

Requested read-out IC50, target or system CRBN/DDB1 (Homo sapiens (Human)), entry O=C1CCC(NC(=O)c2ccc(C3CCN(CC4CCN(c5ccc([C@H]6c7ccc(O)cc7OC[C@H]6c6ccccc6)cc5F)CC4)CC3)cn2)C(=O)N1 (single isomer, unassigned) > 5000 nM

Quick check: IC50 on CRBN/DDB1 (Homo sapiens (Human)), item COc1cc(N2CCC(CN3CCN4c5cc6c(cc5OC[C@H]4C3)C(=O)N(C3CCC(=O)NC3=O)C6)CC2)ccc1[C@H]1c2ccc(O)cc2OC[C@H]1c1ccccc1 (stereo partly shown) ? 500 to 5000 nM

Could you share what IC50 was measured for O=C1CCC(N2C(=O)c3cc4c(cc3C2=O)CN(CC(=O)N2CCC3(CC2)CN(c2ccc([C@@H]5c6ccc(O)cc6OC[C@@H]5c5ccccc5)cc2)C3)C4)C(=O)N1 (single isomer, unassigned) , tested on CRBN/DDB1 (Homo sapiens (Human))? 50 to 500 nM

Field: IC50 (CRBN/DDB1 (Homo sapiens (Human))). Entry: O=C1CCN(c2ccc(N3CCC4(CC3)CC(CN3CCN(c5ccc([C@@H]6c7ccc(O)cc7OC[C@@H]6c6ccccc6)cc5)CC3)C4)cc2)C(=O)N1 > 5000 nM

What reported IC50 corresponds to Cc1nn(C2CCC(=O)NC2=O)c2ccc(N3CCN(CC4CCN(c5ccc([C@@H]6c7ccc(O)cc7OC[C@@H]6c6ccccc6)cc5F)CC4)CC3)cc12 (single isomer, unassigned) on CRBN/DDB1 (Homo sapiens (Human))? 500 to 5000 nM

Provide value of IC50 for this record tested with CRBN/DDB1 (Homo sapiens (Human)): O=C1CCC(N2C(=O)c3cc4c(cc3C2=O)CN(CC(=O)N2CCC3(CC2)CCN(c2ncc([C@H]5c6ccc(O)cc6OC[C@H]5c5ccccc5)cn2)CC3)C4)C(=O)N1 (stereo partly shown) 500 to 5000 nM

Form field - read-out: IC50; system: CRBN/DDB1 (Homo sapiens (Human)); submitted item: O=C1CCC(NC(=O)c2ccc(N3CCN(CC4CCN(c5ccc([C@@H]6c7ccc(O)cc7OC[C@@H]6c6ccccc6)cc5)CC4)CC3)cn2)C(=O)N1 (single isomer, unassigned) > 5000 nM

State its IC50 on CRBN/DDB1 (Homo sapiens (Human)): O=C1CCC(NC(=O)c2ccc3c(n2)OC[C@H]2CN(CC4CC5(CCN(c6ccc([C@@H]7c8ccc(O)cc8OC[C@@H]7c7ccccc7)cc6)CC5)C4)CCN32)C(=O)N1 (stereo partly shown) 500 to 5000 nM

Record O=C1CC[C@H](N2Cc3c(ccc4c3OC[C@H]3CN(C[C@@H]5COC6(CCN(c7ccc([C@@H]8c9ccc(O)cc9OC[C@@H]8c8ccccc8)cc7F)CC6)C5)CCN43)C2=O)C(=O)N1 (single isomer, unassigned) : what is its IC50 with CRBN/DDB1 (Homo sapiens (Human))? < 50 nM

Kindly state the measured IC50 obtained for COc1nc(C(=O)NC2CCC(=O)NC2=O)ccc1N1CCN(CC2CC3(CCN(c4ccc([C@H]5c6ccc(O)cc6OC[C@H]5c5ccccc5)cc4)CC3)C2)CC1 (single isomer, unassigned) with CRBN/DDB1 (Homo sapiens (Human)). 500 to 5000 nM

Please state recorded IC50 (tested on CRBN/DDB1 (Homo sapiens (Human))) of O=C1CCC(N2Cc3cc4c(cc3C2=O)CN(C(=O)CN2CCC3(CC2)CN(c2ccc([C@H]5c6ccc(O)cc6OC[C@H]5c5ccccc5)cc2)C3)C4)C(=O)N1 (stereo partly shown) 50 to 500 nM
